Ref: PubChem BioAssay AID276

tested on: B6C3F1 mice, Lewis lung carcinoma iv, survival T/C; assay: NCI In Vivo Anticancer Drug Screen. Data for tumor model Lewis Lung Carcinoma (intravenous) in B6C3F1 mice; settings: endpoint: median survival time; dose: 100.0 mg/kg/injection; schedule: Q01DX009 (ip); vehicle: saline with Tween-80; higher = longer survival
Toxic doses and inconclusive results are not listed.

compound	T/C
O=[N+]([O-])c1ccc(Sc2ccncn2)c([N+](=O)[O-])c1	99 % of control
c1ccc2sc(SSN3CC4CCC(CC4)C3)nc2c1	91 % of control
NC(=O)CC(N)C(=O)O (stereo not given)	96 % of control
O=CC=O	95 % of control
NCCCNCCSP(=O)(O)O	106 % of control
CN(C)c1nc(N(C)C)nc(N(C)C)n1	109 % of control
c1cc(OCC2CO2)ccc1OCC1CO1 (stereo not given)	96 % of control
O=[N+]([O-])c1ccc(N2CCOCC2)c2c1no[n+]2[O-]	98 % of control
C[CH2][Ge]([CH2]C)[CH2]C.C[CH2][Ge]([CH2]C)[CH2]C.C[CH2][Ge]([CH2]C)[O][Ge]([CH2]C)[CH2]C	113 % of control
O=S(=O)(N=N/C=C1\C=CC=CN1O)c1cccs1	107 % of control
O=C(Nc1nncs1)c1cccs1	103 % of control
C[Si](C)(CCl)N[Si](C)(C)CCl	107 % of control
O=[N+]([O-])c1ccc(-n2[nH]nnc2=S)cc1	95 % of control
O=C(Nc1ccccc1C(=O)O)c1cc([N+](=O)[O-])cc([N+](=O)[O-])c1	102 % of control
CC(/C=C/c1ccccc1)=Nc1ccccc1	99 % of control
COCCCNC1=C(C#N)C(=O)NC(c2cccc([N+](=O)[O-])c2)S1 (stereo not given)	104 % of control
CC(Oc1ccccc1-c1ccccc1)C(=O)N(C)C (stereo not given)	96 % of control
CN(C)C1C(=O)C(C(=O)NP(=O)(NCCCO)N(CCCl)CCCl)=C(O)C2(O)C(=O)C3=C(O)c4c(O)cccc4C(C)(O)C3CC12 (stereo not given)	93 % of control
C=C(C)C(=NC(C)(C)C)Nc1ccccc1	99 % of control
Nc1nc(-c2ccccc2)c(Br)c(=O)[nH]1	110 % of control
Cc1ccc2c(c1)N=C(Nc1ccccc1)N=S2(C)=O (stereo not given)	108 % of control
O=C(CCCCCCC(=O)ON1C(=O)CCC1=O)ON1C(=O)CCC1=O	93 % of control
O=C1SC(c2ccccc2)=S=C1c1ccccc1	95 % of control
CCO/C=C1\SC(=S)N(c2ccccc2C)C1=O	116 % of control
O=C1NC(=O)C2C3C=CC(C12)C1C2C(=O)NC(=O)C2C31 (stereo not given)	96 % of control
